# systemTested: Epidermal growth factor receptor (Homo sapiens)
# assaySetup: at 0.1 µM
# Description: GSK_PKIS: EGFR mean inhibition at 0.1 uM [Nanosyn]
Some molecules, each annotated with its measured inhibition.
Report only the number, with the unit % understood.

Consider the following illustrative entries.
>>> print(df.to_string())
                            molecularstring  numericresult
0  Fc1ccc(-c2ncn(C3CCNCC3)c2-c2ccnc(Oc3ccc4c(c3)OCO4)n2)cc1           5.59
1  NC(=O)c1cc(-c2ccc(F)cc2)cc(-c2ccncc2)c1N          -0.24
2  NS(=O)(=O)c1ccc(N/N=C2\C(=O)Nc3ccc(-c4cnco4)cc32)cc1           9.52
3    O=C1Nc2ccccc2/C1=C/Nc1ccc(-n2cncn2)cc1           4.22
4  CN1CCN(CCCNc2nc3ccc(Oc4ccc(NC(=O)Nc5cc(C(F)(F)F)ccc5F)cc4)cc3[nH]2)CC1          -3.44
5  C[C@@H](Oc1cc(-n2cnc3ccc(OC4CCN(C)CC4)cc32)sc1C(N)=O)c1ccccc1Cl           0.49
6  COc1cc(N2CCN(C(C)C)CC2)ccc1Nc1nc(Nc2ccc(F)cc2C(=O)NC[C@@H](O)CO)c2cc[nH]c2n1          -0.53
7  COc1cc2ncn(-c3cc(OCCc4ccccc4)c(C(N)=O)s3)c2cc1OC           7.08

Here is the next item to consider.
**Query** Write down measured inhibition (Epidermal growth factor receptor (Homo sapiens)) for this molecule. COc1cc(Nc2ncc3c(C)nc(-c4cccc(Oc5ccccc5)c4)n3n2)cc(OC)c1OC
**Result** -0.83

----------
# reported inhibition; entries follow
# systemTested: Ribosomal protein S6 kinase alpha-2 (Homo sapiens)
# assaySetup: at 0.1 µM
Hi! Could you send only the number? It should be in %, unit omitted.

>>> print(df.to_string())
                            molecularstring  readoutname  numericresult
0       Fc1ccc(-c2c(-c3ccncc3)nc3n2CCS3)cc1   inhibition           2.43
1              CCc1nccc2c1nc(-c1nonc1N)n2CC   inhibition           3.79
2  COc1cc(Nc2ncc3c(C)nc(-c4cccc(C(F)(F)F)c4)n3n2)cc(OC)c1OC   inhibition           7.09
3     COc1cc(Nc2ncc(-c3ccccc3)o2)cc(OC)c1OC   inhibition           0.65
4  CCC(=O)Nc1ccc(C)c(-c2ccc(C(=O)NCC3CC3)cc2)c1   inhibition           1.75

**Query** Tell me its inhibition on Ribosomal protein S6 kinase alpha-2 (Homo sapiens): COc1ccc2cc(-c3c(-c4ccncc4)nc(-c4ccc(S(C)(=O)=O)cc4C)n3C)ccc2c1
**Result** 3.42

**Query** Report its inhibition with Ribosomal protein S6 kinase alpha-2 (Homo sapiens) as the test system: C[C@@H](Oc1cc(-n2cnc3ccc(OC4CCN(C)CC4)cc32)sc1C(N)=O)c1ccccc1Cl
**Result** 4.54

**Query** Give reported inhibition for NC(=O)c1cc(-c2ccncc2)cc(-c2ccccc2)c1N (Ribosomal protein S6 kinase alpha-2 (Homo sapiens))
**Result** 3.07

**Query** For Ribosomal protein S6 kinase alpha-2 (Homo sapiens), give inhibition of the listed compound: CN(C)CCOc1ccc(-c2cc(-c3ccc4c(c3)CCC4=NO)c(-c3ccncc3)o2)cc1
**Result** -0.08

**Query** Please indicate recorded inhibition of FC(F)(F)c1cccc(Nc2nccc(-c3cnn4nc(-c5ccccc5)ccc34)n2)c1 measured with Ribosomal protein S6 kinase alpha-2 (Homo sapiens).
**Result** 1.39

**Query** For Ribosomal protein S6 kinase alpha-2 (Homo sapiens), give inhibition of the listed compound: N#Cc1ccc(Oc2nccc(-c3c(-c4ccc(F)cc4)ncn3C3CCNCC3)n2)cc1
**Result** 2.38

**Query** Consider the compound NC(=O)c1cc(-c2ccc(F)cc2)cc(-c2ccncc2)c1N tested on Ribosomal protein S6 kinase alpha-2 (Homo sapiens); state its inhibition.
**Result** 1.82

**Query** Enter inhibition (test system Ribosomal protein S6 kinase alpha-2 (Homo sapiens)) for COc1ccc(C2=C(N3CCc4ccccc43)C(=O)NC2=O)cc1
**Result** 2.16

**Query** Please tell me the measured inhibition for Fc1ccc(-c2ncn(C3CCNCC3)c2-c2ccnc(Oc3ccc(F)c(F)c3)n2)cc1 ; system: Ribosomal protein S6 kinase alpha-2 (Homo sapiens).
**Result** 2.41

**Query** Param request: inhibition | system Ribosomal protein S6 kinase alpha-2 (Homo sapiens) | item COc1ccc2ncn(-c3cc(O[C@H](C)c4ccccc4Cl)c(C(N)=O)s3)c2c1;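 note: reported value is the mean percent inhibition of RSK3, from the GSK PKIS screening panel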
**Result** 1.47
